# Test system: PPARg homodimer (NR concentration 180 nM)
# assay-explanation: PBM binding z-score (relative to random genomic background probes); higher = stronger binding; sequences stand for … in GC…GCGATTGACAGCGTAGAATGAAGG
measured-property: PBM binding z-score
Response field accepts a number only; no unit should be typed.

What PBM binding z-score appears in the records for this sequence with PPARg homodimer (NR concentration 180 nM)? CATTACGGGTCACGAGGTTATAGCACGACGAGCG
4.62

What PBM binding z-score appears in the records for this sequence with PPARg homodimer (NR concentration 180 nM)? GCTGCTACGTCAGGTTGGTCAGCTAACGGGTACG
-0.583

What PBM binding z-score appears in the records for this sequence with PPARg homodimer (NR concentration 180 nM)? TCTTGTAGATCATTAGAGGTTAAGAAAGTGCGCT
0.628

What PBM binding z-score appears in the records for this sequence with PPARg homodimer (NR concentration 180 nM)? ATCTCTAGATAAAAGTTCAGTGAATCCCGAGGAT
1.13

What PBM binding z-score appears in the records for this sequence with PPARg homodimer (NR concentration 180 nM)? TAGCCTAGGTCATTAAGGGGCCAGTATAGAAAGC
0.937

What PBM binding z-score appears in the records for this sequence with PPARg homodimer (NR concentration 180 nM)? GCTGCGAGGTCAGGTTGGTCAGCTAACGGGTACG
2.28

What PBM binding z-score appears in the records for this sequence with PPARg homodimer (NR concentration 180 nM)? CCTACTGGGCCAAACGTCATTGATTCCAATGCTC
0.259

What PBM binding z-score appears in the records for this sequence with PPARg homodimer (NR concentration 180 nM)? CGTCCAAGGTCAGCTGGTCAGTGAAAGCGACGTG
2.63

What PBM binding z-score appears in the records for this sequence with PPARg homodimer (NR concentration 180 nM)? CAAACTAGGTCACAGAGTTCAAAGTCCGTGCGTA
4.68

What PBM binding z-score appears in the records for this sequence with PPARg homodimer (NR concentration 180 nM)? GCTGCTAGGTCACCTGATGGTCAGCTAAAGCTCG
1.57

What PBM binding z-score appears in the records for this sequence with PPARg homodimer (NR concentration 180 nM)? ATCTCTAGGTAACCAAGTTAAGTGAATGCCGAAC
0.347

What PBM binding z-score appears in the records for this sequence with PPARg homodimer (NR concentration 180 nM)? AGAATGAGGTTACCAAAGATCAGGGGAACGCTTG
0.699

What PBM binding z-score appears in the records for this sequence with PPARg homodimer (NR concentration 180 nM)? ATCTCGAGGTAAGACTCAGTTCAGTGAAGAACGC
0.135

What PBM binding z-score appears in the records for this sequence with PPARg homodimer (NR concentration 180 nM)? TTACCAAGGTGAAGGTGGTTGATCCCTCTGTAGA
0.43

What PBM binding z-score appears in the records for this sequence with PPARg homodimer (NR concentration 180 nM)? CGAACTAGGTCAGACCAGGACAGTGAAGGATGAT
0.868

What PBM binding z-score appears in the records for this sequence with PPARg homodimer (NR concentration 180 nM)? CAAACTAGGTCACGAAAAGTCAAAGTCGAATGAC
2.52

What PBM binding z-score appears in the records for this sequence with PPARg homodimer (NR concentration 180 nM)? TCGATTAGGTTAGTCGGGGCATTCAGCCAACATA
0.302

What PBM binding z-score appears in the records for this sequence with PPARg homodimer (NR concentration 180 nM)? ACAGACAGGTGATGAAGGTAACTCCGGCTATCAT
-0.227

What PBM binding z-score appears in the records for this sequence with PPARg homodimer (NR concentration 180 nM)? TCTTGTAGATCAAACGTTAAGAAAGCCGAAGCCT
-0.0553

What PBM binding z-score appears in the records for this sequence with PPARg homodimer (NR concentration 180 nM)? CGTCCAAGGTCATAGGAGGTCAGAGAAGACAGAT
3.89

What PBM binding z-score appears in the records for this sequence with PPARg homodimer (NR concentration 180 nM)? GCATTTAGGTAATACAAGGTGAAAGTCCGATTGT
0.826

What PBM binding z-score appears in the records for this sequence with PPARg homodimer (NR concentration 180 nM)? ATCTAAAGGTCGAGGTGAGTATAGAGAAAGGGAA
2.16

What PBM binding z-score appears in the records for this sequence with PPARg homodimer (NR concentration 180 nM)? CCTACTGGGCCATTCAGAGGTCATTGCTCATATG
1.87

What PBM binding z-score appears in the records for this sequence with PPARg homodimer (NR concentration 180 nM)? CCTCACGGGTCACTCCAGGTTATAGCATCGGAGT
1.7

What PBM binding z-score appears in the records for this sequence with PPARg homodimer (NR concentration 180 nM)? CCTTACGGGTCACTCCAGGTAATAGCATCGGAGT
2.25

What PBM binding z-score appears in the records for this sequence with PPARg homodimer (NR concentration 180 nM)? TAGCCTAGGTCATGCGGGCCAGTTTAGTGTCGGC
0.303

What PBM binding z-score appears in the records for this sequence with PPARg homodimer (NR concentration 180 nM)? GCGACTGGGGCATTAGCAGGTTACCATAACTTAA
0.463

What PBM binding z-score appears in the records for this sequence with PPARg homodimer (NR concentration 180 nM)? CCTAGCAGGCCAGGGTCACACAAGCATTTCGCTT
1.19

What PBM binding z-score appears in the records for this sequence with PPARg homodimer (NR concentration 180 nM)? CCTCGGTGGACAGAAGGTCAGAGCTGTCCGCTTT
1.8

What PBM binding z-score appears in the records for this sequence with PPARg homodimer (NR concentration 180 nM)? CCTACTGGGCCAAGGTCATCGATCAGTCAAAGCA
1.98

What PBM binding z-score appears in the records for this sequence with PPARg homodimer (NR concentration 180 nM)? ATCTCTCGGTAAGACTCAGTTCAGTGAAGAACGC
1.35

What PBM binding z-score appears in the records for this sequence with PPARg homodimer (NR concentration 180 nM)? CCGACTGGGGCATAGGGTTACCATAAGCCAGCCC
0.589

What PBM binding z-score appears in the records for this sequence with PPARg homodimer (NR concentration 180 nM)? TCAATTAGTTGAAGGGCAACCGACGAGTCCGTTT
-0.0858

What PBM binding z-score appears in the records for this sequence with PPARg homodimer (NR concentration 180 nM)? GCTATTAGTTGAAAGGGCAAACGAATGATTCTCG
1.19

What PBM binding z-score appears in the records for this sequence with PPARg homodimer (NR concentration 180 nM)? CCAACTAGGTCATCCAGGACAGTGAATACATTGA
2.3

What PBM binding z-score appears in the records for this sequence with PPARg homodimer (NR concentration 180 nM)? CCGTCTGGGGCAAAGGTTACCATACTCAGTACGA
1.64

What PBM binding z-score appears in the records for this sequence with PPARg homodimer (NR concentration 180 nM)? ATCGGAAGGTCGAAGGTGAGTATACCCACCCGAA
1.26

What PBM binding z-score appears in the records for this sequence with PPARg homodimer (NR concentration 180 nM)? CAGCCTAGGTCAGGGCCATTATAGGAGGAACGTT
0.564

What PBM binding z-score appears in the records for this sequence with PPARg homodimer (NR concentration 180 nM)? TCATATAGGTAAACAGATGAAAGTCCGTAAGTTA
0.603

What PBM binding z-score appears in the records for this sequence with PPARg homodimer (NR concentration 180 nM)? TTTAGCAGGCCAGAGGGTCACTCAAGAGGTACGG
0.57

What PBM binding z-score appears in the records for this sequence with PPARg homodimer (NR concentration 180 nM)? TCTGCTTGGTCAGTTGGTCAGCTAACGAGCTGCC
-1.35

What PBM binding z-score appears in the records for this sequence with PPARg homodimer (NR concentration 180 nM)? GCATATAGGTAGTACAAGGTGAAAGTCCGATTGT
-0.146

What PBM binding z-score appears in the records for this sequence with PPARg homodimer (NR concentration 180 nM)? GCTAGGAGGACAAGGTCAGAGCTTTGTCCGTAGA
0.32

What PBM binding z-score appears in the records for this sequence with PPARg homodimer (NR concentration 180 nM)? GCTGCTAGGTCAACTGTTGGTCAGCTAAAGCTCG
1.68

What PBM binding z-score appears in the records for this sequence with PPARg homodimer (NR concentration 180 nM)? ATCTCTAGATAAGACTCAGTTCAGTGAAGAACGC
-0.287

What PBM binding z-score appears in the records for this sequence with PPARg homodimer (NR concentration 180 nM)? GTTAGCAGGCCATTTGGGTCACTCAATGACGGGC
-0.0267

What PBM binding z-score appears in the records for this sequence with PPARg homodimer (NR concentration 180 nM)? CCTTACTGGTCACGAGGTTATAGCACGACGAGCG
1.78

What PBM binding z-score appears in the records for this sequence with PPARg homodimer (NR concentration 180 nM)? TCTTGTAGATCAATAGAGGTTAAGAAAGTGCGCT
0.36

What PBM binding z-score appears in the records for this sequence with PPARg homodimer (NR concentration 180 nM)? CGTCAAAGTTCAACTTAGGTAACGTAAAGCACGC
4.03

What PBM binding z-score appears in the records for this sequence with PPARg homodimer (NR concentration 180 nM)? GGAACGAGGGCAAGGTTGATAGCATCTGTCGACG
0.79

What PBM binding z-score appears in the records for this sequence with PPARg homodimer (NR concentration 180 nM)? TCTTGTAGATCAGCAGGTTAAGAAAGCTGGCCAA
-0.272
